Would you mind telling me the reported log10 IC50 of each entry?
Biological target: Human BOAT1 (Homo sapiens)
Construct: expressed in transfected cells
Sequence (Q695T7 whole entry): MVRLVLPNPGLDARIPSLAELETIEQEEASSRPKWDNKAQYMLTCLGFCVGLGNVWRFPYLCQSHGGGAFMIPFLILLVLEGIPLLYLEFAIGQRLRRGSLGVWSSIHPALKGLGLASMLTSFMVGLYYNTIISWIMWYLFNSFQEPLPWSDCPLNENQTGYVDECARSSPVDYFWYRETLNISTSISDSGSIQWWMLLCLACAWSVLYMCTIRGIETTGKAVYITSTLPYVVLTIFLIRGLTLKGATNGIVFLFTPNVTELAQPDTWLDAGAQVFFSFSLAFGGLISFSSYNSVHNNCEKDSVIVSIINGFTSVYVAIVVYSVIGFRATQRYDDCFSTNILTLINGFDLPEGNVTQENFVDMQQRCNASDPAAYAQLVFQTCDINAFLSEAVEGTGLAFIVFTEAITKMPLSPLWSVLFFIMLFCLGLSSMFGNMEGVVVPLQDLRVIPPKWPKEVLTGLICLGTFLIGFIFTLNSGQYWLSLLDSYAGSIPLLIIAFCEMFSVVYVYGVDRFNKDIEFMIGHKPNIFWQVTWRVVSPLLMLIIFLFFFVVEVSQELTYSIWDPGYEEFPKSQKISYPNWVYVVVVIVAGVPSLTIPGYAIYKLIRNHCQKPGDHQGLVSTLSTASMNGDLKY
Experiment: hBOAT1 inhibitory test (phenylalanine uptake)
Type: cell-based
Details: Human BOAT1 stable expression CHO cells; phenylalanine uptake, phenylalanine 0.25 mM; read-out: hB0AT1 IC50
Record value = log10 of IC50 given in µM.

Can you look up the measured log10 IC50 of CN(C)C(=O)Cc1cc(Cl)c2c(c1)CCN(C(=O)CNC(=O)/C=C/c1ccc(C(F)(F)F)cc1F)C2 for me?
-1.68

Can you look up the measured log10 IC50 of O=C(O)CCCN1CCN(C(=O)CNC(=O)/C=C/c2ccc(C(F)(F)F)cc2F)[C@@H](c2ccc(C3CC3)cc2)C1 for me?
-1.74

Can you look up the measured log10 IC50 of O=C(O)CCCN1C[C@H](c2ccccc2)N(C(=O)CNC(=O)/C=C/c2ccc(C(F)(F)F)cc2F)C[C@H]1C(F)(F)F for me?
0.46

Can you look up the measured log10 IC50 of C[C@@H]1CN(C(=O)CNC(=O)/C=C/c2ccc(C(F)(F)F)cc2F)[C@@H](c2ccc(F)cc2)CN1CCCC(=O)O for me?
-1.27

Can you look up the measured log10 IC50 of Cc1noc([C@H]2CN(CCCC(=O)O)CCN2C(=O)CNC(=O)/C=C/c2ccc(C(F)(F)F)cc2F)n1 for me?
0.46

Can you look up the measured log10 IC50 of CC(CN1C[C@H](c2ccccc2)N(C(=O)CNC(=O)/C=C/c2ccc(C(F)(F)F)cc2F)C[C@H]1C)C(=O)O (stereo partly drawn) for me?
0.43

Can you look up the measured log10 IC50 of CC(C(=O)O)c1ccc2c(c1)CCN(C(=O)CNC(=O)/C=C/c1ccc(C(F)(F)F)cc1)C2 (single isomer, unassigned) [I-287] for me?
-0.75

Can you look up the measured log10 IC50 of CONC(=O)Cc1cc(Cl)c2c(c1)CCN(C(=O)CNC(=O)/C=C/c1ccc(C(F)(F)F)cc1F)C2 for me?
-2.15

Can you look up the measured log10 IC50 of CC(C(=O)O)c1ccc2c(c1)CCN(C(=O)CNC(=O)/C=C/c1ccc(C(F)(F)F)cc1)C2 (single isomer, unassigned) [I-286] for me?
-0.52

Can you look up the measured log10 IC50 of O=C(O)CCCN1CCN(C(=O)CNC(=O)C=Cc2ccc(C(F)(F)F)cc2F)C(c2nc(-c3ccccc3)no2)C1 (stereo not drawn) for me?
-0.63

Can you look up the measured log10 IC50 of O=C(O)CCCN1CCN(C(=O)CNC(=O)/C=C/c2ccc(C(F)(F)F)cc2F)C(c2cccc(C3CC3)c2)C1 (stereo not drawn) for me?
-1.32

Can you look up the measured log10 IC50 of O=C(/C=C/c1ccc(C(F)(F)F)cc1F)NCC(=O)N1CCc2cc(CC(=O)NCCO)cc(Cl)c2C1 for me?
-1.72

Can you look up the measured log10 IC50 of CNC(=O)Cn1cc2c(n1)CN(C(=O)CNC(=O)/C=C/c1ccc(C(F)(F)F)cc1)CC2 for me?
-0.15

Can you look up the measured log10 IC50 of CN1CCN(C(=O)CNC(=O)/C=C/c2ccc(C(F)(F)F)cc2F)CC1c1cccc(CC(=O)O)c1 (stereo not drawn) for me?
-0.65

Can you look up the measured log10 IC50 of O=C(/C=C/c1ccc(C(F)(F)F)cc1)NCC(=O)N1CCn2ncc(CCC(=O)N3CCCC3)c2C1 for me?
-1.47

All figures here come from patent US20260001849A1.
